// data source = the supplement of paper PMC12317010

Measurement notes: collision cross section in nitrogen (drift tube, single-field); higher = larger gas-phase ion size;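 note: chemical standards at 10 µM analysed by drift tube IMS-QTOF MS in about 3.95 torr nitrogen, mean of duplicate injections differing ≤1%, mass error below 10 ppm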
Run parameters: ion type: [M+Na]; ion source: ESI; ion mode: Positive
Readout kind: collision cross section in nitrogen (Å²)

>  <Compound>
C=CC(=O)OCC(CO)(COCC(COC(=O)C=C)(COC(=O)C=C)COC(=O)C=C)COC(=O)C=C [Dipentaerythritol pentaacrylate]

>  <Unit abbrev>
Å²

>  <Recorded result>
217.9

$$$$
>  <Compound>
c1cnc2c(c1)ccc1cccnc12

>  <Unit abbrev>
Å²

>  <Recorded result>
146

$$$$
>  <Compound>
OC[C@@H](O)[C@@H](O)[C@H](O)[C@H](O)CO

>  <Unit abbrev>
Å²

>  <Recorded result>
141.5

$$$$
>  <Compound>
CCc1cccc(C)c1N(C(=O)CCl)[C@@H](C)COC

>  <Unit abbrev>
Å²

>  <Recorded result>
172.5

$$$$
>  <Compound>
COc1ccc(-c2coc3cc(O)cc(O)c3c2=O)cc1

>  <Unit abbrev>
Å²

>  <Recorded result>
175

$$$$
>  <Compound>
COC1=CC(=O)C[C@@H](C)[C@]12Oc1c(Cl)c(OC)cc(OC)c1C2=O

>  <Unit abbrev>
Å²

>  <Recorded result>
189.6

$$$$
>  <Compound>
CCON=C(CC)C1=C(O)CC(c2c(C)cc(C)cc2C)CC1=O (configuration not stated)

>  <Unit abbrev>
Å²

>  <Recorded result>
196.2

$$$$
>  <Compound>
CCN(C(=O)c1cc(C)cc(OC[C@H](C)Nc2ccncc2)c1)C(C)C

>  <Unit abbrev>
Å²

>  <Recorded result>
194.8

$$$$
>  <Compound>
O=C(CC(=O)c1ccccc1)c1ccccc1

>  <Unit abbrev>
Å²

>  <Recorded result>
165.9

$$$$
>  <Compound>
CC=Cc1ccc(OCc2ccccc2)c(OC)c1

>  <Unit abbrev>
Å²

>  <Recorded result>
172.2

$$$$
>  <Compound>
CCOC(=O)[C@H](C)Oc1ccc(Oc2nc3ccc(Cl)cc3o2)cc1

>  <Unit abbrev>
Å²

>  <Recorded result>
189

$$$$
>  <Compound>
O=C(O)c1cn(-c2ccc(F)cc2)c2cc(N3CCNCC3)c(F)cc2c1=O

>  <Unit abbrev>
Å²

>  <Recorded result>
204.8

$$$$
>  <Compound>
CCOC(=O)[C@@H](C)Oc1ccc(Oc2nc3ccc(Cl)cc3o2)cc1

>  <Unit abbrev>
Å²

>  <Recorded result>
189

$$$$
>  <Compound>
CCCCOCCOCCOC(=O)CCCCC(=O)OCCOCCOCCCC [Bis[2-(2-butoxyethoxy)ethyl] adipate]

>  <Unit abbrev>
Å²

>  <Recorded result>
198.8

$$$$
>  <Compound>
Cc1nc(-c2ccccn2)ncc1C(=O)Nn1cc(C)c2cc(F)ccc21

>  <Unit abbrev>
Å²

>  <Recorded result>
181.8

$$$$
>  <Compound>
CCCCC(CC)COP(=O)(OCC(CC)CCCC)OCC(CC)CCCC (configuration not stated) [Tris(2-ethylhexyl) phosphate]

>  <Unit abbrev>
Å²

>  <Recorded result>
231.9

$$$$
>  <Compound>
CC(O)CN(CCCN(C)C)CCCN(C)C (configuration not stated) [1-{Bis[3-(dimethylamino)propyl]amino}propan-2-ol]

>  <Unit abbrev>
Å²

>  <Recorded result>
158.4

$$$$

* * *

Measurement notes: collision cross section in nitrogen (drift tube, single-field); higher = larger gas-phase ion size
Run parameters: ion type: [M+Na]; ion source: ESI; ion mode: Positive

>  <Compound>
N=C(NCCCCCCNC(=N)NC(=N)Nc1ccc(Cl)cc1)NC(=N)Nc1ccc(Cl)cc1

>  <collision cross section in nitrogen>
226.5 Å²

$$$$
>  <Compound>
CN(C)c1ccc(/N=N/c2ccccc2C(=O)O)cc1

>  <collision cross section in nitrogen>
179.2 Å²

$$$$
>  <Compound>
CCCCCCCCCCCC(=O)NCCCN(C)C [N-[3-(Dimethylamino)propyl]dodecanamide]

>  <collision cross section in nitrogen>
181.8 Å²

$$$$
>  <Compound>
CCCOC(=O)c1c(Cl)c(Cl)c(Cl)c(Cl)c1C(=O)OCCC [Dipropyl 3,4,5,6-tetrachlorobenzene-1,2-dicarboxylate]

>  <collision cross section in nitrogen>
191.8 Å²

$$$$
